Experiment: Clinical DDI study: plasma pharmacokinetics of probe drugs
Settings: human, in vivo, Cmax, adjusted geo‐mean, probe drug alone; linear mixed effects model

{"SMILES INPUT": "C[C@H]1O[C@@H](O[C@H]2[C@@H](O)C[C@H](O[C@H]3[C@@H](O)C[C@H](O[C@H]4CC[C@@]5(C)[C@H](CC[C@@H]6[C@@H]5C[C@@H](O)[C@]5(C)[C@@H](C7=CC(=O)OC7)CC[C@]65O)C4)O[C@@H]3C)O[C@@H]2C)C[C@H](O)[C@@H]1O", "VALUE UNIT": "ng/mL", "Cmax": 1.12}
{"SMILES INPUT": "CC(C)c1nc(N(C)S(C)(=O)=O)nc(-c2ccc(F)cc2)c1/C=C/[C@@H](O)C[C@@H](O)CC(=O)O", "VALUE UNIT": "ng/mL", "Cmax": 7.72}

The measured values listed here are drawn from paper PMC8359310.
